The reported numbers originate from paper PMC8539612.

Reported solubility at 1 h values for the following compounds.
- assayProcedure: Determination of aqueous solubility (vortex 1 h at 25 °C, centrifugation, filtration, HPLC)
- Assay type: physicochemical
- measurementSetup: PB (buffer), aqueous buffer, thermodynamic from solid; PB at pH 6, 25 °C
Quick note: give the figure in µg/mL, leave out the unit.

Take a look at these entries with their results.
- compound: "O=c1cc(-c2ccc(O)cc2)oc2c([C@@H]3O[C@H](CO)[C@@H](O)[C@H](O)[C@H]3O)c(O)cc(O)c12 [Vitexin, apigenin-8-C-glucoside]"
  solubility at 1 h / µg/mL: 7.1
- compound: "O=c1cc(-c2ccc(OC3OC(CO)C(O)C(O)C3O)cc2)oc2c(C3OC(CO)C(O)C(O)C3O)c(O)cc(O)c12 (stereo not drawn) [Vitexin-4′-O-β-glucoside (1), vitexin-4′-O-β-glucoside]"
  solubility at 1 h / µg/mL: 943

Attention now shifts to the item below.
Need solubility at 1 h, item O=c1cc(-c2ccc(O)cc2)oc2c(C3OC(CO)C(O)C(O)C3O)c(O)cc(OC3OC(CO)C(O)C(O)C3O)c12 (stereo not drawn) [Vitexin-5-O-β-glucoside (2), vitexin-5-O-β-glucoside]
444

---

- assayProcedure: Determination of aqueous solubility (vortex 1 h at 25 °C, centrifugation, filtration, HPLC)
- Format: physicochemical
- measurementSetup: PB (buffer), aqueous buffer, thermodynamic from solid; PB at pH 8, 25 °C
measuredProperty: solubility at 1 h (µg/mL)
Give your result in µg/mL as a bare value.

// solved cases for solubility at 1 h follow
- compound: "O=c1cc(-c2ccc(O)cc2)oc2c(C3OC(CO)C(O)C(O)C3O)c(O)cc(OC3OC(CO)C(O)C(O)C3O)c12 (stereo not drawn) [Vitexin-5-O-β-glucoside (2), vitexin-5-O-β-glucoside]"
  measuredProperty: "solubility at 1 h"
  unitAbbreviation: "µg/mL"
  numericReadout: 767
- compound: "O=c1cc(-c2ccc(O)cc2)oc2c([C@@H]3O[C@H](CO)[C@@H](O)[C@H](O)[C@H]3O)c(O)cc(O)c12 [Vitexin, apigenin-8-C-glucoside]"
  measuredProperty: "solubility at 1 h"
  unitAbbreviation: "µg/mL"
  numericReadout: 157

// moving on: another record for solubility at 1 h
What solubility at 1 h value was documented for this compound, O=c1cc(-c2ccc(OC3OC(CO)C(O)C(O)C3O)cc2)oc2c(C3OC(CO)C(O)C(O)C3O)c(O)cc(O)c12 (stereo not drawn) [Vitexin-4′-O-β-glucoside (1), vitexin-4′-O-β-glucoside] ?
1800
